Assay: AUC(0 to t) in male Balb/c mouse at 1 mg/kg, iv measured upto 96 hrs by LC-MS/MS analysis
Type: ADME, organism-based
Conditions: male, Balb/c, in vivo
TEST READOUT: AUC(0-t) at 96 h (ng·h/mL)
One number for each entry, in ng·h/mL.

Name the reported AUC(0-t) at 96 h value associated with the compound CNC(=O)c1ccc(N2CCN(Cc3ccc4nc(C)c(=O)[nH]c4c3F)CC2)c(F)n1 [AZD-9574] 4890

###

Assay: Tmax in male Balb/c mouse at 1 mg/kg, iv measured upto 96 hrs by LC-MS/MS analysis
Type: ADME, organism-based
Details: in vivo
Task for the reader: assign each of the following molecules its reported Tmax.
Numbers only, in min.

Dear colleague, I am looking for the recorded Tmax of the following molecule: CNC(=O)c1ccc(N2CCN(Cc3ccc4nc(C)c(=O)[nH]c4c3F)CC2)c(F)n1 4.8

Further cases:
Tell me the measured Tmax of CCc1cc2ncc(CN3CC=C(c4ccc(C#N)cn4)CC3)cc2[nH]c1=O , please. 4.8

###

For each entry below, report its inhibition value.
Molecular target: Poly [ADP-ribose] polymerase 2 (Homo sapiens, UniProt Q9UGN5)
Sequence (Q9UGN5 whole entry): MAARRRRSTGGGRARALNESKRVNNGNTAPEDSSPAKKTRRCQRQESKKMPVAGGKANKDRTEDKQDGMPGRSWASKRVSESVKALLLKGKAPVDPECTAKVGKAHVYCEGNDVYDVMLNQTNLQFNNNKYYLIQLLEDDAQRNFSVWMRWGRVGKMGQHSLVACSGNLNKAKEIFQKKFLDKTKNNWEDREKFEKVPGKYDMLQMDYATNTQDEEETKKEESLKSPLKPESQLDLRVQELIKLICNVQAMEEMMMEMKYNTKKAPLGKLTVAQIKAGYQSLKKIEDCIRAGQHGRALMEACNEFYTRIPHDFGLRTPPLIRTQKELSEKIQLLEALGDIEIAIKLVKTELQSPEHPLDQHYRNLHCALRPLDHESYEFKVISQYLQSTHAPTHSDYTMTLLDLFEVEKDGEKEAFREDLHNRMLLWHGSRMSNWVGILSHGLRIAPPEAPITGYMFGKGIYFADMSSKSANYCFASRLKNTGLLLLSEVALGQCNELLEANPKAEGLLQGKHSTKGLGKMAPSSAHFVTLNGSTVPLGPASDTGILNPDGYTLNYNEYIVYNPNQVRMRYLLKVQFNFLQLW
Experiment: Inhibition of PARP2 (unknown origin) at 1 uM preincubated with compound for 10 mins followed by DNA and NAD+ addition and measured after 60 mins by chemiluminescence based envision reader analysis relative to control
Settings: time 70.0 min
Number first, unit second.

The following compounds have reported results that may help.
Fill blank: measured inhibition of the compound CNC(=O)c1ccc(N2CCN(Cc3cnc4cc(C)c(=O)[nH]c4c3)CC2)c(F)n1 is ____. 98.3%

Entry to check: CCc1cc2ncc(CN3CC=C(c4ccc([N+](=O)[O-])cc4F)CC3)cc2[nH]c1=O 98.1%

In the following, a different compound is considered.
Need inhibition of CCc1cc2ncc(CN3CC=C(c4ccc(F)cn4)CC3)cc2[nH]c1=O , thanks. 93.9%

###

Experiment: Apparent volume of distribution in male Balb/c mouse at 1 mg/kg, iv measured upto 96 hrs by LC-MS/MS analysis
Type: ADME, organism-based
Conditions: male, Balb/c, in vivo, read-out: Vz
TEST READOUT: Vd
Number first, unit second: that is the form wanted.

Need Vd of CNC(=O)c1ccc(N2CCN(Cc3ccc4nc(C)c(=O)[nH]c4c3F)CC2)c(F)n1 [AZD-9574] , thanks. 3.64 L/kg

###

Test: Drug concentration in brain of male Balb/c mouse at 10 mg/kg, po measured at 6 hr postdose
Type: ADME, organism-based
Conditions: read-out: Ct
TEST READOUT: concentration at 6 h (ng/g)
One number for each entry, in ng/g.

What concentration at 6 h value was documented for this compound, CNC(=O)c1ccc(N2CCN(Cc3ccc4nc(C)c(=O)[nH]c4c3F)CC2)c(F)n1 ? 48

###

Target: Poly [ADP-ribose] polymerase 2 (Homo sapiens)
Assay: Inhibition of PARP2 in PARP1 knockout human A549 cells preincubated with compound for 1 hr followed by H2O2 addition and measured after 5 mins by selective targeting PARylation inhibition assay
Format: cell-based
TEST READOUT: pIC50
Give bare numbers, as −log10 of the molar value.

What does the record list as pIC50 for CCc1cc2ncc(CN3CC=C(c4ccc(C#N)cn4)CC3)cc2[nH]c1=O ? 5.28

###

Test system: MDA-MB-436
Test: Antiproliferative activity against human MDA-MB-436 cells assessed as inhibition of cell proliferation at 100 nM incubated for 7 days by CCK-8 assay relative to control
Format: functional
Conditions: MDA-MB-436, 168 h, time 7 day
Please assign a class to every record based on measured inhibition at 0.1 µM, with ranges low bin (below 20%), mid bin (20% to below 40%), high bin (40% or more)

Illustrative cases are given below, each with its answer.
Where would CCc1cc2ncc(CN3CC=C(c4cnc5ccnn5c4)CC3)cc2[nH]c1=O land among the classes by reported inhibition at 0.1 µM? low bin

How about this molecule: CCc1cc2ncc(CN3CC=C(c4ccc(C)c(F)c4)CC3)cc2[nH]c1=O mid bin

How about CCc1cc2ncc(CN3CC=C(c4ccc(C#N)cn4)CC3)cc2[nH]c1=O ? high bin

Others:
Consider CCc1cc2ncc(CN3CC=C(c4cc(C)c(F)c(C)c4)CC3)cc2[nH]c1=O . To which inhibition at 0.1 µM class does it belong? mid bin

What do you have for CCc1cc2ncc(CN3CC=C(c4cccnc4N)CC3)cc2[nH]c1=O ? low bin

Now give it for CCc1cc2ncc(CN3CC=C(c4ccncc4C#N)CC3)cc2[nH]c1=O too. low bin

Now the same for CCc1cc2ncc(CN3CC=C(c4cc(F)c(C#N)c(F)c4)CC3)cc2[nH]c1=O high bin

Next: CCc1cc2ncc(CN3CC=C(c4cnc(F)c(F)c4)CC3)cc2[nH]c1=O mid bin

###

Molecular target: Poly [ADP-ribose] polymerase 1 (Homo sapiens, UniProt P09874)
Sequence (P09874 whole entry): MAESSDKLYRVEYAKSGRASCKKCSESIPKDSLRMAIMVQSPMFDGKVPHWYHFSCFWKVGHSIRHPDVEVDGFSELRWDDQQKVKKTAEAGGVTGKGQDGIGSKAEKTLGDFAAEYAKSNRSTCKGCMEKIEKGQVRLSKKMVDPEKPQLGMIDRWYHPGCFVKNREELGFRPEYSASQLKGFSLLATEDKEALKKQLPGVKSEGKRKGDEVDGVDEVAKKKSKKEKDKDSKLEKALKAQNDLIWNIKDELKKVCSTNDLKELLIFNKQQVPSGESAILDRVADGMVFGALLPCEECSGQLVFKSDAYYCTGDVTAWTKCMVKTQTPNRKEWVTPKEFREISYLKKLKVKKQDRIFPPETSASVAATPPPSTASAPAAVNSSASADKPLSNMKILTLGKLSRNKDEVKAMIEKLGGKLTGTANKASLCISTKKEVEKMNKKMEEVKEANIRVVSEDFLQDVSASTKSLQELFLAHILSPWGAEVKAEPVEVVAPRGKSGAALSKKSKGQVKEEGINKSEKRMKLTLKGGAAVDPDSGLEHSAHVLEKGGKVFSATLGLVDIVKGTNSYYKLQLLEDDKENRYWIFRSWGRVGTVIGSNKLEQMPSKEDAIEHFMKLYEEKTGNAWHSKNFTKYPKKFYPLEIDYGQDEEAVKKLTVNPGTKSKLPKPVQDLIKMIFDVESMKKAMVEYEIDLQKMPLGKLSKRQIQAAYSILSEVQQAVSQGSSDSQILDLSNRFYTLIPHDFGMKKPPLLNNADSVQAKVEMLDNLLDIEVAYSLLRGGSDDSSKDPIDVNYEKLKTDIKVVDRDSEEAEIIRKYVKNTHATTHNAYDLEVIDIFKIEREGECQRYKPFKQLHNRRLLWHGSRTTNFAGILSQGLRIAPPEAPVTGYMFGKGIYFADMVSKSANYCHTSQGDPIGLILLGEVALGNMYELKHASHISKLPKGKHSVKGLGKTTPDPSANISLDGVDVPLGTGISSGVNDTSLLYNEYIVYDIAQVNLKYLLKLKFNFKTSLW
Experiment: Inhibition of PARP1 (unknown origin) at 1 nM preincubated with compound for 10 mins followed by DNA and NAD+ addition and measured after 60 mins by chemiluminescence based envision reader analysis relative to control
Details: time 70.0 min
Consider the following compounds; for each one, report its inhibition.
Answers are plain numbers, in %.

# example entries with known answers
# lookup: inhibition of CNC(=O)c1ccc(N2CCN(Cc3ccc4nc(C)c(=O)[nH]c4c3F)CC2)c(F)n1 [AZD-9574] 63.7

Repeat for the following compound: CCc1cc2ncc(CN3CC=C(c4ccc(C#N)cn4)CC3)cc2[nH]c1=O 93.6

Input CCc1cc2ncc(CN3CC=C(c4ccc(C#N)s4)CC3)cc2[nH]c1=O 46.2

Go through the list and state inhibition for each entry.
1. CCc1cc2ncc(CN3CC=C(c4ncccc4C(=O)NC)CC3)cc2[nH]c1=O
2. CCc1cc2ncc(CN3CC=C(c4cc(F)c(C#N)c(F)c4)CC3)cc2[nH]c1=O
3. CCc1cc2ncc(CN3CC=C(c4ccc(C)cc4F)CC3)cc2[nH]c1=O
4. CCc1cc2ncc(CN3CC=C(c4ccc(C(=O)NC)nc4OC)CC3)cc2[nH]c1=O
5. CCc1cc2ncc(CN3CC=C(c4ccccc4C#N)CC3)cc2[nH]c1=O

[15, 31.3, 61.7, 38.8, 51.6]

Please give inhibition, item by item, for the list that follows.
1. CCc1cc2ncc(CN3CC=C(c4ccc(C(=O)NC)c(F)c4F)CC3)cc2[nH]c1=O
2. CCc1cc2ncc(CN3CC=C(c4ccc(F)c(C)c4)CC3)cc2[nH]c1=O

1: 46.1; 2: 46.6

###

Assay: AUC(0 to t) in rat at 2.5 mg/kg, iv measured upto 96 hrs by LC-MS/MS analysis
Format: ADME, organism-based
Settings: in vivo
TEST READOUT: AUC(0-t) at 96 h
Write the numeric value and follow it with the unit.

I have this molecule here, CCc1cc2ncc(CN3CC=C(c4ccc(C#N)cn4)CC3)cc2[nH]c1=O , and I need its recorded AUC(0-t) at 96 h. 510 µg·h/mL

###

Molecular target: Poly [ADP-ribose] polymerase 1 (Homo sapiens, UniProt P09874)
Assay: Inhibition of PARP1 (unknown origin) preincubated with compound for 10 mins followed by DNA and NAD+ addition and measured after 60 mins by chemiluminescence based envision reader analysis
I'd appreciate it if you could supply IC50 values for the items below.
Number plus unit, in that order.

Solved entries:
Report IC50 for CCc1cc2ncc(CN3CC=C(c4ccc([N+](=O)[O-])cc4F)CC3)cc2[nH]c1=O please. 0.47 nM

CCc1cc2ncc(CN3CC=C(c4ccc(C#N)cc4F)CC3)cc2[nH]c1=O , same question. 0.17 nM

Do the same for CNC(=O)c1ccc(N2CCN(Cc3cnc4cc(C)c(=O)[nH]c4c3)CC2)c(F)n1 please 0.32 nM

Input CCc1cc2ncc(CN3CC=C(c4cc(F)c(C#N)cn4)CC3)cc2[nH]c1=O 0.28 nM

What about this compound? CCc1cc2ncc(CN3CCN(c4ccc(C(=O)NC)nc4F)CC3)cc2[nH]c1=O 0.65 nM

Parameters: items (list). Returns: IC50 for each item.
1. CCc1cc2ncc(CN3CC=C(c4ccc(F)cn4)CC3)cc2[nH]c1=O
2. CCc1cc2ncc(CN3CC=C(c4ccc(C#N)cn4)CC3)cc2[nH]c1=O

1: 0.28 nM; 2: 0.2 nM

###

Assay: Drug concentration in brain of male Balb/c mouse at 10 mg/kg, po measured at 1 hr postdose
Format: ADME, organism-based
Conditions: read-out: Ct
TEST READOUT: concentration at 1 h (ng/g)
One number for each entry, in ng/g.

For the compound shown here, CNC(=O)c1ccc(N2CCN(Cc3ccc4nc(C)c(=O)[nH]c4c3F)CC2)c(F)n1 , give the reported concentration at 1 h. 412

###

I'd appreciate it if you could supply AUC(0-t) at 96 h values for the items below.
Assay: AUC(0 to t) in male Balb/c mouse at 1 mg/kg, po measured upto 96 hrs by LC-MS/MS analysis
Type: ADME, organism-based
Details: male, Balb/c, in vivo
Answers are plain numbers, in ng·h/mL.

As a guide, the following entries are already answered.
Given CCc1cc2ncc(CN3CCN(c4cc(F)c(C#N)cn4)CC3)cc2[nH]c1=O , state its recorded AUC(0-t) at 96 h. 16000

Entry to check: CCc1cc2ncc(CN3CC=C(c4cc(F)c(C#N)cn4)CC3)cc2[nH]c1=O 16400

We now examine a further compound.
Name the recorded AUC(0-t) at 96 h for CNC(=O)c1ccc(N2CCN(Cc3ccc4nc(C)c(=O)[nH]c4c3F)CC2)c(F)n1 . 4180
